# method_notes: GSH reactivity in PBS buffer assessed as half life at 1 uM after presence of GSH by LC-MS/MS analysis
# Type: physicochemical
# test_parameters: PBS buffer with GSH
measured_metric: half-life at 1 µM

{"columns": ["chemical_smiles", "measured_metric", "value_reported"],
 "data": [
  ["CC#CCNC(=O)c1cccc2c1cc(C)n2-c1nc2c(c(NCc3ccccc3)n1)COCC2", "half-life at 1 µM", "> 24 h"]
]}

Which half-life at 1 µM value belongs to "CC#CCNC(=O)c1cccc2c1cc(C)n2-c1nc2c(c(NCc3ccccc3)n1)CCCC2" ?
> 24 h

---

// each record: one item and its Ki for Transitional endoplasmic reticulum ATPase (Homo sapiens, UniProt P55072)
Just the number please, in nM, no unit attached.

// worked examples, Ki included
{"columns": ["chemical_smiles", "measured_metric", "value_reported"],
 "data": [
  ["C#CCNC(=O)c1cccc2c1cc(C)n2-c1nc2c(c(NCc3ccccc3)n1)COCC2", "Ki", 18.6],
  ["CCCNC(=O)c1cccc2c1cc(C)n2-c1nc2c(c(NCc3ccccc3)n1)CCCC2", "Ki", 40.8],
  ["C#CCNC(=O)c1cccc2c1cc(C)n2-c1nc2c(c(NCc3ccccc3)n1)CCCC2", "Ki", 30.6],
  ["Cc1cc2c(C(N)=O)cccc2n1-c1nc2c(c(NCc3ccccc3)n1)CCCC2", "Ki", 28.6]
]}

Moving on to another compound below.
Given the entry "C#CC(=O)Nc1cccc2c1cc(C)n2-c1nc2c(c(NCc3ccccc3)n1)CCCC2" , what Ki was observed with Transitional endoplasmic reticulum ATPase (Homo sapiens, UniProt P55072)?
37.9
